Reference for the values: patent US4716225A

Test system: brain
Test: Feasibility calculation of brain concentration of 6-iodo-D-galactose
Parameters: species or system human
Conditions: initial blood concentration 10^-2 M; read-out: estimated final brain concentration
endpoint.name: concentration

**Q:** Give the measured concentration of O[C@@H]1[C@@H](O)[C@@H](O)O[C@H](CI)[C@@H]1O [6-IG, 6-iodo-6-deoxy-α-D-galactopyranose] .
**A:** ~600 µM
